Where these numbers come from: ChEMBL document CHEMBL1155036

Readings of inhibition for the listed compounds
system: Aldo-keto reductase family 1 member B1 (Rattus norvegicus)
test.protocol: Inhibition of rat kidney aldose reductase activity assessed as NADPH oxidation at 100 uM
All answers are understood in %, so give the number only.

See these solved cases before continuing.
O=C(O)CN1C(=O)S/C(=C\c2ccc(-c3cc(=O)c4ccccc4o3)cc2)C1=O
44.6
CCOC(=O)CN1C(=O)S/C(=C\c2cccc(-c3cc(=O)c4ccccc4o3)c2)C1=O
12.9

// switching to the query compound
Lookup: Which inhibition value belongs to O=C1NC(=O)/C(=C/c2ccc(-c3cc(=O)c4ccccc4o3)cc2)S1 ?
Found: 88.7
